Each recorded value in this set is attributed to patent US20110300579A1.

- system.name: purified soluble αvβ3 integrin (Millipore) (UniProt P06756 31-992; P05106 27-718)
- Sequence (P06756 31-992, chain 1 of 2): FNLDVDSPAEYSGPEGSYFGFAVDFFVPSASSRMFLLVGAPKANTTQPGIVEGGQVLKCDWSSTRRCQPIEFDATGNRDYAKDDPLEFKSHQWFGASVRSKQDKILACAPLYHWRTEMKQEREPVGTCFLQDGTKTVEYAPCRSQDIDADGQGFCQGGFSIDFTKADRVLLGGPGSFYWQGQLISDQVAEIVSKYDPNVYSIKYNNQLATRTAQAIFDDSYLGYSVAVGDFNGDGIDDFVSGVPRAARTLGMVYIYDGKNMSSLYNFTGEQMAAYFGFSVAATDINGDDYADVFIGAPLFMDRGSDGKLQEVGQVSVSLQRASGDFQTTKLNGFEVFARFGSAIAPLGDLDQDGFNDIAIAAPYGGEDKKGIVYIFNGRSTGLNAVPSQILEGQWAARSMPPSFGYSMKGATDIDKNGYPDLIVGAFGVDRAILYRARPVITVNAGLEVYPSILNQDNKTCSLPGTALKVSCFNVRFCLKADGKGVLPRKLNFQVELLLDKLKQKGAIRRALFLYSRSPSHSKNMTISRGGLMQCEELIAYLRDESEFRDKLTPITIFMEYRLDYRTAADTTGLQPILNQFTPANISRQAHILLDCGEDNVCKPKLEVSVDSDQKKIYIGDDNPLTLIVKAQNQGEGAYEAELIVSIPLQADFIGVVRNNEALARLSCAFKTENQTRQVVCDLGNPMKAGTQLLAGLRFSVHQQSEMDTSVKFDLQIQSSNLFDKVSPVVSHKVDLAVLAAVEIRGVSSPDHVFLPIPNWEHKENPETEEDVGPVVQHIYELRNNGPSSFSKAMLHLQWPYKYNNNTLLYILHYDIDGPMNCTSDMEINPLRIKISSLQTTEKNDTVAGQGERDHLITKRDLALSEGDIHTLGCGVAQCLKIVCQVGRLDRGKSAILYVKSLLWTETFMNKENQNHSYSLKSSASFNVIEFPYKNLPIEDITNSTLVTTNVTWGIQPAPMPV
- Sequence (P05106 27-718, chain 2 of 2): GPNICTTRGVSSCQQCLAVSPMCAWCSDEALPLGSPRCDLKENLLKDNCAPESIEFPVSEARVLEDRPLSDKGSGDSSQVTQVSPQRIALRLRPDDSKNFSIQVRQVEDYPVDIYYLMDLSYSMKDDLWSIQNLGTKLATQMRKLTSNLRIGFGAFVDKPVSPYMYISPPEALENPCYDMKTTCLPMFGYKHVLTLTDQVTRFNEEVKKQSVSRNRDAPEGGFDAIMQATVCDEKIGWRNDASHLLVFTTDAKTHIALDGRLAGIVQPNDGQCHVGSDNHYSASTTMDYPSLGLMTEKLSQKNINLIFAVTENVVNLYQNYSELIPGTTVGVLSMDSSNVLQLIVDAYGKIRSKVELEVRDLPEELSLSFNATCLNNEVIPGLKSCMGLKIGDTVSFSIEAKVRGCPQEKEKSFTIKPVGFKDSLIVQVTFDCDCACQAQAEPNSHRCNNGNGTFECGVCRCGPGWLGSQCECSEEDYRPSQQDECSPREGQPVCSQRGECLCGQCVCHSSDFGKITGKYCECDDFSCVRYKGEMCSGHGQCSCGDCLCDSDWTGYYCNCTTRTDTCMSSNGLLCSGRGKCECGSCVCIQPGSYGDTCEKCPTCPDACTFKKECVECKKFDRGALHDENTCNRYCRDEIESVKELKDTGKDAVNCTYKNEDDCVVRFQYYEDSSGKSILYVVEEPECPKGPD
measurement.type: Kd

The value of Kd measured for the binder Contortrostatin (CN), native, purified from Agkistrodon contortrix contortrix venom (ligand) DAPANPCCDAATCKLTTGSQCADGLCCDQCKFMKEGTVCRRARGDDLDDYCNGISAGCPRNPFH turned out to be 6.6 nM
